System: mouse long-term hematopoietic stem cells
Assay: Reproducibility and concentration dependence test: 1-week culture of sorted Hoxb5-tri-mCherry mouse long-term hematopoietic stem cells, flow cytometry
Format: cell-based
Details: Table 4; compound 0.1 μM; day 7 of culture; n=2
Known mCherry-positive rate of a selection of compounds
Write the answer as a number in %, unit excluded.

These recorded examples may help you get a feel for the data.
[[record]]
compound = "C[C@H]1[C@@H](OCc2ccccc2)O[C@@H]2O[C@@]3(C)CC[C@H]4[C@H](C)CC[C@@H]1[C@@]24OO3"
test_value = 94.1

[[record]]
compound = "C[C@H]1[C@H](S(C)(=O)=O)O[C@@H]2O[C@@]3(C)CC[C@H]4[C@H](C)CC[C@@H]1[C@@]24OO3"
test_value = 11.5

[[record]]
compound = "C[C@H]1[C@@H](C)O[C@@H]2O[C@@]3(C)CC[C@H]4[C@H](C)CC[C@@H]1[C@@]24OO3"
test_value = 2.0

[[record]]
compound = "CC(=O)OCCO[C@@H]1O[C@@H]2O[C@@]3(C)CC[C@H]4[C@H](C)CC[C@@H]([C@H]1C)[C@@]24OO3"
test_value = 44.3

[[record]]
compound = "C[C@H]1[C@H](N2CCOCC2)O[C@@H]2O[C@@]3(C)CC[C@H]4[C@H](C)CC[C@@H]1[C@@]24OO3"
test_value = 24.3


The reported mCherry-positive rate of the compound "C[C@H]1[C@H](NS(C)(=O)=O)O[C@@H]2O[C@@]3(C)CC[C@H]4[C@H](C)CC[C@@H]1[C@@]24OO3" was 14.3

Summary for this compound, "CS[C@H]1O[C@@H]2O[C@@]3(C)CC[C@H]4[C@H](C)CC[C@@H]([C@H]1C)[C@@]24OO3" : mCherry-positive rate is 8.0

Recorded result, CC(=O)OCCOC1O[C@@H]2O[C@@]3(C)CC[C@H]4[C@H](C)CC[C@@H]([C@H]1C)[C@@]24OO3 (stereo in doubt) , mCherry-positive rate: 80.7

Query "C[C@H]1[C@@H](CN)O[C@@H]2O[C@@]3(C)CC[C@H]4[C@H](C)CC[C@@H]1[C@@]24OO3" yields mCherry-positive rate of 4.9
